target: furin, P09958;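 note: purified furin at 1:10 enzyme:substrate in 50 mM HEPES pH 7.5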
Sequence (P09958 whole entry): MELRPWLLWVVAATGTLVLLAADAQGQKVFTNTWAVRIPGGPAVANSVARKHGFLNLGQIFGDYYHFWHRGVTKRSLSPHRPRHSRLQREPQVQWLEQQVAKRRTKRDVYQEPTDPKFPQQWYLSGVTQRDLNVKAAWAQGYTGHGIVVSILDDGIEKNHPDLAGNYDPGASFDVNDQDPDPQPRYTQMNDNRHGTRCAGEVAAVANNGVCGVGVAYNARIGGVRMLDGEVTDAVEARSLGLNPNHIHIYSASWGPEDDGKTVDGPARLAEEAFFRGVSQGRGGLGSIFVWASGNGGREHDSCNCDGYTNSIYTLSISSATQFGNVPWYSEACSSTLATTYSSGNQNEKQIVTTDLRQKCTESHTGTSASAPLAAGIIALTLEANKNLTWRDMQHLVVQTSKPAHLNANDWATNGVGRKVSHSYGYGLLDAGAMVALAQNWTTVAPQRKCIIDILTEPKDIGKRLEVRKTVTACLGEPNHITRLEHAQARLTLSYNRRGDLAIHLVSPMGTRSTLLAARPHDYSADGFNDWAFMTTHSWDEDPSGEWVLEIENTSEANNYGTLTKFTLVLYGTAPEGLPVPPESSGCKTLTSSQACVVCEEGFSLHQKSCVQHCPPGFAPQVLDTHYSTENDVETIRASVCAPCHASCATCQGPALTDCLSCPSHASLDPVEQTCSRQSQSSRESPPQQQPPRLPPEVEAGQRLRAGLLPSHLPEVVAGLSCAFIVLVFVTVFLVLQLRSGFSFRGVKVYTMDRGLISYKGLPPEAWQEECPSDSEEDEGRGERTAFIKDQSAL
assay-info: furin cleavage Z-score vs untreated control; higher = more cleavage, active = 3.5 or more, inactive = 1 or less, 8 variable residues between constant flanks
test-parameters: 7.5 min
The list shows a part of the results. The hit rate among all sequences tested is not known here.
Below: a set of entries, each annotated with reported furin cleavage Z-score.
reported-metric: furin cleavage Z-score

1. CASLDPTFTIAGNASASA [HC893] :: -1.06
2. CAGYFRIRRGAGNASASA [FS-931] :: 7.65
3. CAHPQRKRRGAGNASASA [FS-538] :: 8.91
4. CADSGRAYLPAGNASASA [FS-2629] :: -0.794
5. CAGSFRSLRSAGNASASA [FS-433] :: -0.832
6. CARVQRLRRGAGNASASA [FS-1076] :: 6.03
7. CADHMEECSQAGNASASA [HC1815] :: -0.251
8. CARTKRYVVFAGNASASA [FS-2095] :: 4.82
9. CAVAVEPVVFAGNASASA [HC645] :: 1.23
10. CARQPRSNGDAGNASASA [FS-2292] :: 0.463
11. CADPERRKRFAGNASASA [FS-985] :: 4.94
12. CAGFDRKKRGAGNASASA [FS-238] :: 9.36
13. CARKGRYKAFAGNASASA [FS-2960] :: -0.402
14. CALDRRSQRSAGNASASA [FS-910] :: 2.25
15. CARHLIFCHSAGNASASA [HC855] :: -0.853
16. CANLMRPKRSAGNASASA [FS-137] :: 11.8
17. CARRRRAAATAGNASASA [FS-2784] :: 8.16
18. CAVHFRSIRSAGNASASA [FS-308] :: 8.08
19. CALSRRSIRSAGNASASA [FS-461] :: 10.4
20. CAMEKCSQHLAGNASASA [HC1714] :: 1.25
21. CALRTREKRGAGNASASA [FS-549] :: 7.16
